log K listing for selected compounds.
- protocolNotes: Lipophilicity, log K at 10 uM after 40 mins by HPLC analysis
- Assay type: physicochemical
Please give only the number in your answer, with no unit.

>>> df
                                   compound  numericreadout
0  CC1(C)N2Cc3[nH]c4ccccc4c3C[C@H]2C(=O)N1[C@@H](CCC(=O)OCc1ccccc1)C(=O)OCc1ccccc1            1.05
1  CC1(C)N2Cc3[nH]c4ccccc4c3C[C@H]2C(=O)N1[C@@H](Cc1ccccc1)C(=O)OCc1ccccc1            1.05

[ask] Using the record for "CC(C)[C@@H](C(=O)OCc1ccccc1)N1C(=O)[C@@H]2Cc3c([nH]c4ccccc34)CN2C1(C)C" , report its log K.
[reply] 0.73

[ask] # lookup: log K of CCC(C)[C@@H](C(=O)OCc1ccccc1)N1C(=O)[C@@H]2Cc3c([nH]c4ccccc34)CN2C1(C)C (some centres undefined)
[reply] 0.8
